# Test system: S. aureus JAR060131
# Type: cell-based, Staphylococcus aureus
# runConditions: PBS; approx. 1 × 10^6 CFU/ml S. aureus JAR; within 2 hrs (Table 2)
# IC99.9 annotations
assayReadout: IC99.9 (µM)

J LKKVWKRVFRILKRFLRYLKRPVR B (Ac-LKKVWKRVFRILKRFLRYLKRPVR-NH2) [Peptide P157]; 0.8
J LKKLYKRVAKIWKRWIRYLKKPVR B (Ac-LKKLYKRVAKIWKRWIRYLKKPVR-NH2) [Peptide P144]; 1.6
J LRRLWKRVFKIIKRLFRQLKKPVR B (Ac-LRRLWKRVFKIIKRLFRQLKKPVR-NH2) [Peptide P163]; 0.8
J LRRVYKRLFRLWKRIIRQLRRPVR B (Ac-LRRVYKRLFRLWKRIIRQLRRPVR-NH2) [Peptide P158]; 1.6
J LRRVWKRVARIIKRLYRYLKRPVR B (Ac-LRRVWKRVARIIKRLYRYLKRPVR-NH2) [Peptide P161]; 1.6
J LRRLWKRLVRIIKRIYRQLKRPVR B (Ac-LRRLWKRLVRIIKRIYRQLKRPVR-NH2) [Peptide P140]; 1.6

----------
# IC90 annotations
# Test system: LPS (E. coli 054)-induced IL-12p40 production
# experimentalDetails: LPS neutralization in whole human blood
# Type: cell-based
# runConditions: LPS-induced IL-12p40; blood from two donors
assayReadout: IC90 (nM)

Ac-LKRVWKRVFKLLKRYWRQLKKPVR-NH2 [Peptide P148]; 0.25
Ac-IGKEFKRIVERIKRFLRELVRPLR-NH2 [OP-145, JIGKEFKRIVERIKRFLRELVRPLRB, reference compound]; 1.25
Ac-LKRLYKRVFRLLKRYYRQLRRPVR-NH2 [Peptide P159]; 0.25
Ac-LKRLYKRLAKLIKRLYRYLKKPVR-NH2 [Peptide P145]; 0.75

----------
# Tested on: S. aureus JAR060131
# Format: cell-based, Staphylococcus aureus
# runConditions: PBS; approx. 1 × 10^6 CFU/ml S. aureus JAR; within 2 hrs (Table 2)
# Experimental: Polypeptides of the invention preferably have an in vitro IC99.9 of at most 150 μM after 2 hours at 37° C. against at least one microbial species in the presence of 50% plasma. Said IC99.9 is preferably determined in accordance with a method for determining the antimicrobial activity as described herein in the Examples. […] Bacterial counts can be determined by manual CFU counting. […]
assayReadout: IC99.9 (µM)

Ac-IGKEFKRIVERIKRFLRELVRPLR-NH2 [OP-145, JIGKEFKRIVERIKRFLRELVRPLRB, reference compound]; 1.6
J LRRLWKRLVKILKRWFRYLRRPVR B (Ac-LRRLWKRLVKILKRWFRYLRRPVR-NH2) [Peptide P142]; 0.8
Ac-LKRVWKRVFKLLKRYWRQLKKPVR-NH2 [Peptide P148]; 1.6
J LRKLWKRLAKIIKRLYRYLRRPVR B (Ac-LRKLWKRLAKIIKRLYRYLRRPVR-NH2) [Peptide P154]; 1.6
J LKKLWKRLARLLKRFIRQLRRPVR B (Ac-LKKLWKRLARLLKRFIRQLRRPVR-NH2) [Peptide P147]; 1.6
J LRRVYKRLARLIKRYLRQLKKPVR B (Ac-LRRVYKRLARLIKRYLRQLKKPVR-NH2) [Peptide P152]; 1.6
J LRRLYKRVVKLWKRLFRQLRRPVR B (Ac-LRRLYKRVVKLWKRLFRQLRRPVR-NH2) [Peptide P143]; 1.6
Ac-LKRLYKRVFRLLKRYYRQLRRPVR-NH2 [Peptide P159]; 1.6
J LRKLWKRVVKIWKRYLRQLRRPVR B (Ac-LRKLWKRVVKIWKRYLRQLRRPVR-NH2) [Peptide P153]; 1.6
J LKKLWKRVFRIWKRIFRYLKRPVR B (Ac-LKKLWKRVFRIWKRIFRYLKRPVR-NH2) [Peptide P139]; 0.8
J LKRLWKRLFKILKRYYRYLRRPVR B (Ac-LKRLWKRLFKILKRYYRYLRRPVR-NH2) [Peptide P162]; 1.6
J LKKLYKRLFKILKRILRYLRKPVR B (Ac-LKKLYKRLFKILKRILRYLRKPVR-NH2) [Peptide P146]; 1.6
J LKKLWKRLARLWKRIIRQLKKPVR B (Ac-LKKLWKRLARLWKRIIRQLKKPVR-NH2) [Peptide P160]; 1.6

----------
# IC99.9 annotations
# Test system: S. aureus JAR060131
# Type: cell-based, Staphylococcus aureus
# runConditions: PBS; approx. 1 × 10^6 CFU/ml S. aureus JAR; within 2 hrs (Table 2)
assayReadout: IC99.9 (µM)

Ac-LKRLYKRLAKLIKRLYRYLKKPVR-NH2 [Peptide P145]; 1.6
J LKKVYKRLARLLKRYIRYLRRPVR B (Ac-LKKVYKRLARLLKRYIRYLRRPVR-NH2) [Peptide P149]; 1.6
J LKKLYKRLFKLWKRLYRYLKKPVR B (Ac-LKKLYKRLFKLWKRLYRYLKKPVR-NH2) [Peptide P151]; 1.6
J LRRLYKRVFRLLKRWWRYLKRPVR B (Ac-LRRLYKRVFRLLKRWWRYLKRPVR-NH2) [Peptide P141]; 0.8

----------
# System: LTA (S. aureus)-induced IL-8 production
# experimentalDetails: LTA neutralization in whole human blood
# Assay type: cell-based
# runConditions: LTA-induced IL-8; blood from one donor
assayReadout: IC50 (µM)

Ac-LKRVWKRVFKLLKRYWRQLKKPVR-NH2 [Peptide P148]; 0.195
Ac-LKRLYKRLAKLIKRLYRYLKKPVR-NH2 [Peptide P145]; 0.195
Ac-IGKEFKRIVERIKRFLRELVRPLR-NH2 [OP-145, JIGKEFKRIVERIKRFLRELVRPLRB, reference compound]; 0.781
Ac-LKRLYKRVFRLLKRYYRQLRRPVR-NH2 [Peptide P159]; 0.195
